# pIC50 annotations
# tested on: human muscarinic acetylcholine M3 receptor (M3-ACh) (Homo sapiens)
# Construct: expressed in transfected cells; host or cells: CHO-K1 (Chinese Hamster Ovary) cell membranes
# procedure summary: biochemical
# Type: binding
# assay setup: pIC50 (M3 Binding IC50 classes)
pIC50: −log10 of the molar value.

// solved cases for pIC50 follow
compound	pIC50
CC(C(=O)O[C@H]1C[N+]2(CCc3ccccc3)CCC1CC2)(c1ccccc1)N1CCSCC1 (single isomer, unassigned)	> 8.70
CC(C(=O)O[C@H]1C[N+]2(CCc3cccc(F)c3)CCC1CC2)(c1ccccc1)N1CCCCCC1 (single isomer, unassigned)	> 8.70
Cc1cnc(NC(=O)C[N+]23CCC(CC2)[C@@H](OC(=O)C(C)(c2cccs2)N2CCCCC2)C3)cn1 (single isomer, unassigned)	> 8.70
CC1(C)CN(C(C)(C(=O)O[C@H]2C[N+]3(CCCOc4ccccc4)CCC2CC3)c2ccccc2)C1 (single isomer, unassigned)	8.00 to 8.70
CC(C(=O)O[C@H]1C[N+]2(CC(=O)Nc3cccc(F)c3)CCC1CC2)(c1ccccc1)N1CCCCCC1 (single isomer, unassigned)	> 8.70

Asked: What value of pIC50 has been reported for the following compound? Cc1nc(-c2ccc(OCC[N+]34CCC(CC3)[C@@H](OC(=O)[C@](C)(c3ccccc3)N3CCCCC3)C4)cc2)no1
Given back: 8.00 to 8.70

* * *

# tested on: human muscarinic acetylcholine M3 receptor (M3-ACh) (Homo sapiens)
# Construct: expressed in transfected cells; host or cells: CHO-K1 (Chinese Hamster Ovary) cell membranes
# procedure summary: biochemical
# Type: binding
# assay setup: pIC50 (M3 Binding IC50 classes)
pIC50: −log10 of the molar value.
# pIC50 annotations

Asked: What value of pIC50 has been reported for the following molecule? CC(C(=O)O[C@H]1C[N+]2(CCCc3ccccc3)CCC1CC2)(c1cccs1)N1CCSCC1 (single isomer, unassigned) [Example 50]
Given back: > 8.70

Asked: Ok, now CC(C(=O)O[C@H]1C[N+]2(CCc3cccc(Cl)c3)CCC1CC2)(c1ccccc1)N1CCCCCC1 (single isomer, unassigned) [Example 86]
Given back: > 8.70

Asked: Ok, now Cn1c(=O)oc2cc(CC[N+]34CCC(CC3)[C@@H](OC(=O)[C@](C)(c3ccccc3)N3CCCCC3)C4)ccc21 [Example 25]
Given back: > 8.70

Asked: Ok, now CC(C(=O)O[C@H]1C[N+]2(CCCc3ccccc3)CCC1CC2)(c1ccccc1)N1CCSCC1 (single isomer, unassigned) [Example 104]
Given back: > 8.70

Asked: Ok, now C[C@@](C(=O)O[C@H]1C[N+]2(CCCS(=O)(=O)c3ccc(C#N)cc3)CCC1CC2)(c1ccccc1)N1CCCCC1 [Example 35]
Given back: 8.00 to 8.70

Asked: Ok, now CC(C(=O)O[C@H]1C[N+]2(CCOCc3ccc(Cl)cc3)CCC1CC2)(c1ccccc1)N1CCSCC1 (single isomer, unassigned) [Example 108]
Given back: 8.00 to 8.70

* * *

# tested on: human muscarinic acetylcholine M3 receptor (M3-ACh) (Homo sapiens, UniProt P20309)
# Construct: expressed in transfected cells; host or cells: CHO-K1 (Chinese Hamster Ovary) cell membranes
# Sequence (P20309 whole entry): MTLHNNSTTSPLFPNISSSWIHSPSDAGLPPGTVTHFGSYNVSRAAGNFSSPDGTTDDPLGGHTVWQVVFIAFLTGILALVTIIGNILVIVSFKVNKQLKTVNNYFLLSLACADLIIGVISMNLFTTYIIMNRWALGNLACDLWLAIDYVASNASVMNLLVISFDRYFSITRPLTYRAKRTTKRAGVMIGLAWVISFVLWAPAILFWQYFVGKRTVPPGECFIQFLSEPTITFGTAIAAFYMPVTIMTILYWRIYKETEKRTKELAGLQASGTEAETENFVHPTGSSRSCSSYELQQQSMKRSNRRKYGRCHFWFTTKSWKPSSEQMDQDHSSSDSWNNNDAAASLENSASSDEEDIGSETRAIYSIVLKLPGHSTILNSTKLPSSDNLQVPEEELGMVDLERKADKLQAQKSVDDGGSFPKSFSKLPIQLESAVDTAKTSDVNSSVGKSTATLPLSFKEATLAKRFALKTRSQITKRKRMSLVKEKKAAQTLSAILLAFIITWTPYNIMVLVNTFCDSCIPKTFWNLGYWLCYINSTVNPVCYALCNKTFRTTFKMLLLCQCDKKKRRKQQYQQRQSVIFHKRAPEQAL
# procedure summary: biochemical
# Assay type: binding
# assay setup: pIC50 (M3 Binding IC50 classes)
pIC50: −log10 of the molar value.
readout kind: pIC50

Asked: Identify the measured pIC50 of CC(C(=O)O[C@H]1C[N+]2(CC(=O)Nc3cccnn3)CCC1CC2)(c1ccccc1)N1CCSCC1 (single isomer, unassigned) for human muscarinic acetylcholine M3 receptor (M3-ACh) (Homo sapiens, UniProt P20309).
Given back: > 8.70

FYI, the data here is from patent US20100113510A1.
